Target: NRAS WT (Homo sapiens (Human), UniProt P01111+P62937)
Sequence (P01111 whole entry): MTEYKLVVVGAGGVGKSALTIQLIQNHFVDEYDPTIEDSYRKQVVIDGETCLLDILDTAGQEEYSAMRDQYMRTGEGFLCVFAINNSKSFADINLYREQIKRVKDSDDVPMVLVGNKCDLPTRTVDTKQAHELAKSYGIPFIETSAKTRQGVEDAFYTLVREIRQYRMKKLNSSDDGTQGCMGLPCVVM
Sequence (P62937 whole entry): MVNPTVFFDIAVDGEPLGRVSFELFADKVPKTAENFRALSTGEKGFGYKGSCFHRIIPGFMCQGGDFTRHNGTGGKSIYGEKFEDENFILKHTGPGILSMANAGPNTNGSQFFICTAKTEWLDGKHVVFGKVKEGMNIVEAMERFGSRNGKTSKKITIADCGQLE
Experiment: Ras-Raf (BRAF RBD) disruption / FRET / MOA assay, NRAS WT
Assay type: biochemical
Settings: read-out: IC50* NRAS WT FRET data
pIC50: −log10 of the molar value.
Measured pIC50 accompanies every entry in the list below.
endpoint_name: pIC50

molecule: CCn1c(-c2cccnc2[C@H](C)OC)c2c3cc(ccc31)-c1csc(n1)C[C@H](NC(=O)[C@H](C(C)C)N(C)C(=O)N1CCC3(CC1)CN(C(=O)/C=C/CN1CCCCC1)C3)C(=O)N1CCC[C@H](N1)C(=O)OCC(C)(C)C2 (atropisomer, axis not shown)
endpoint_result: 6.00 to 7.00

molecule: C=CC(=O)N1CC2(CCN(C(=O)N(C)[C@H](C(=O)N[C@H]3Cc4nc(cs4)-c4ccc5c(c4)c(c(-c4cccnc4[C@H](C)OC)n5CC)CC(C)(C)COC(=O)[C@@H]4CCCN(N4)C3=O)C(C)C)CC2)C1 (atropisomer, axis not shown)
endpoint_result: 6.00 to 7.00

molecule: C=CC(=O)N1CCN(C(=O)N(C)[C@H](C(=O)N[C@H]2Cc3nc(cs3)-c3ccc4c(c3)c(c(-c3cccnc3[C@H](C)OC)n4CC)CC(C)(C)COC(=O)[C@@H]3CCCN(N3)C2=O)C(C)C)CC1 (atropisomer, axis not shown)
endpoint_result: 7.00 to 8.00

molecule: C=CC(=O)N1CCO[C@H]2CN(C(=O)N(C)[C@H](C(=O)N[C@H]3Cc4nc(n(C)n4)-c4ccc5c(c4)c(c(-c4cccnc4[C@H](C)OC)n5CC(F)(F)F)CC(C)(C)COC(=O)[C@@H]4CCCN(N4)C3=O)C(C)C)C[C@H]21 (atropisomer, axis not shown)
endpoint_result: 6.00 to 7.00

molecule: C=CC(=O)N(C)[C@H]1CCN(C(=O)N(C)[C@H](C(=O)N[C@H]2Cc3nc(cs3)-c3ccc4c(c3)c(c(-c3cccnc3[C@H](C)OC)n4CC)CC(C)(C)COC(=O)[C@@H]3CCCN(N3)C2=O)C(C)C)C1 (atropisomer, axis not shown)
endpoint_result: 6.00 to 7.00

molecule: CO[C@@H](C)c1ncccc1-c1c2c3cc(ccc3n1CC(F)(F)F)-c1csc(n1)C[C@H](NC(=O)CCOC1CN(C(=O)C#CC(C)(C)N3CCC3)C1)C(=O)N1CCC[C@H](N1)C(=O)OCC(C)(C)C2 (atropisomer, axis not shown)
endpoint_result: 5.00 to 6.00

molecule: CO[C@@H](C)c1ncccc1-c1c2c3cc(ccc3n1CC(F)(F)F)-c1csc(n1)C[C@H](NC(=O)[C@H](C(C)C)N(C)C(=O)N1C[C@@H]3OCCN(C(=O)/C=C/C(F)F)[C@@H]3C1)C(=O)N1CCC[C@H](N1)C(=O)OCC(C)(C)C2 (atropisomer, axis not shown)
endpoint_result: 6.00 to 7.00

Provenance of the data: patent US11566007B2
